tested on: Escherichia coli strain EDL933 (EHEC); test: Disk diffusion susceptibility test; type: cell-based; settings: Escherichia coli, read-out: Zone of inhibition at 5 mg per disc (mm) E. coli 933
Attribute Measured: zone of inhibition at 5000 µg/disc (mm)
One number for each entry, in mm.

Consider the worked cases shown below.
1. Clc1ccc(-n2nc3ccccc3c2-c2ccccc2)cc1 [Compound 17, 2-(4-Chlorophenyl)-3-phenyl-2H-indazole]: 2
2. Clc1ccc(-c2c3ccccc3nn2-c2ccccc2)cc1 [Compound 22, 3-(4-Chlorophenyl)-2-phenyl-2H-indazole]: 1
3. O=C(O)c1ccc(-c2c3ccccc3nn2-c2ccccc2)cc1 [Compound 25]: 2

Ask: Any idea what its zone of inhibition at 5000 µg/disc is? The molecule is O=C(O)c1ccc(-n2nc3ccccc3c2-c2ccccc2)cc1 [Compound 20]
Result: 2

* * *

Target: human recombinant cyclooxygenase-2 (Homo sapiens, UniProt P35354)
Construct: purchased Cayman Chemical 560131
Sequence (P35354 18-604): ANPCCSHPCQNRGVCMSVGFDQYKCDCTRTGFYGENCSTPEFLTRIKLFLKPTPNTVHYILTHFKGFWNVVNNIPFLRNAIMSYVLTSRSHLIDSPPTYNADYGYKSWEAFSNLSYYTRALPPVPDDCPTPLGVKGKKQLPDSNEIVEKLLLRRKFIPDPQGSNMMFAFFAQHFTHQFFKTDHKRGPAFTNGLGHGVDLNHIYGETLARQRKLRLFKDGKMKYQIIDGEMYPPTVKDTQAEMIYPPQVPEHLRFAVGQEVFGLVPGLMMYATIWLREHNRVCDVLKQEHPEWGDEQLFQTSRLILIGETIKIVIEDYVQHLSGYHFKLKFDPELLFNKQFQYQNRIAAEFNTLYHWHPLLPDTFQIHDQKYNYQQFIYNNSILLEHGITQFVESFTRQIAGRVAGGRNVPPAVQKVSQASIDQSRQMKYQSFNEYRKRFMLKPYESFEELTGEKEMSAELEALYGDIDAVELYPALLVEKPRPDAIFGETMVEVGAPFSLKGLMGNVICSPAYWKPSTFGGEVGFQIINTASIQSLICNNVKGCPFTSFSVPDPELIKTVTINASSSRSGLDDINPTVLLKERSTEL
Assay: COX inhibitor screening assay (Cayman kit)
Type: biochemical
Conditions: tested at 10 µM
Attribute Measured: inhibition at 10 µM (%)
Give bare numbers, in %.

1) COC(=O)c1ccc(-n2nc3ccccc3c2-c2ccccc2)cc1 [Compound 18]: 50
2) COC(=O)c1ccc(-c2c3ccccc3nn2-c2ccccc2)cc1 [Compound 23]: 36.4
3) CS(=O)(=O)c1ccc(-c2c3ccccc3nn2-c2ccccc2)cc1 [Compound 26]: 41.2

Ask: Any idea what its inhibition at 10 µM is? The molecule is CS(=O)(=O)c1ccc(-n2nc3ccccc3c2-c2ccccc2)cc1 [Compound 21]
Result: 44.5

* * *

test: Cytotoxicity MTT assay; format: cell-based, human; conditions: human, 10 µM, 48 h exposure, read-out: % Viability (10 µM) HeLa Cells
Answer each item with its documented viability at 48 h, 10 µM.
Answers are plain numbers, in %.

Consider the worked cases shown below.
1) COC(=O)c1ccc(-n2nc3ccccc3c2-c2ccccc2)cc1 [Compound 18]: 94.1
2) c1ccc(-c2c3ccccc3nn2-c2ccccc2)cc1 [Compound 16, 2,3-Diphenyl-2H-indazole]: 93

Now let's try a different one.
Ask: Any idea what its viability at 48 h, 10 µM is? The molecule is COC(=O)c1ccc(-c2c3ccccc3nn2-c2ccccc2)cc1 [Compound 23]
Result: 93.7
